Biological target: T1, 4H470-bH
T1 chain: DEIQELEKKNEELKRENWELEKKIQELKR
Experiment: two-hybrid library CCNG1;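 also: natural log of median RNA to DNA barcode read ratio; higher means stronger binding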
Property: interaction score
I'd appreciate a reply containing only the number, no unit.

So what's the measured interaction score for this one? DEIQELEKKNEELKRENWELEKKIQELKR [4H470-bH]
0.789

So what's the measured interaction score for this one? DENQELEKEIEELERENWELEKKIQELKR [4H1046-bH]
0.405
